# Tested on: Biomphalaria alexandrina
# Test: Molluscicidal activity against Biomphalaria alexandrina assessed as number of dead snail at 10 ppm after 48 hrs
# Assay type: organism-based
# Condition Parameters: in vivo
Readout: Activity (%)
Give bare numbers, in %.

Some solved cases for reference:
>>> observed("C[C@@H]1O[C@@H](O[C@H]2[C@H](O[C@H]3CC[C@]4(C)[C@H]5CC=C6[C@@H]7CC(C)(C)CC[C@]7(C(=O)O)CC[C@@]6(C)[C@]5(C)CC[C@H]4[C@]3(C)C=O)OC[C@H](O[C@@H]3O[C@H](CO)[C@@H](O)[C@H](O)[C@H]3O)[C@@H]2O)[C@H](O)[C@H](O)[C@H]1O [SALZMANNIANOSIDE A]")
0
>>> observed("C[C@@H]1O[C@@H](O[C@H]2[C@H](O[C@H]3CC[C@@]4(C)[C@@H](CC[C@]5(C)[C@@H]4CC=C4[C@@H]6CC(C)(C)CC[C@]6(C(=O)O)CC[C@]45C)[C@]3(C)CO)OC[C@H](O[C@@H]3O[C@H](CO)[C@@H](O)[C@H](O)[C@H]3O)[C@@H]2O)[C@H](O)[C@H](O)[C@H]1O [HEDERACOLCHISIDE A]")
90

Query: Any idea what its Activity is? The compound is C[C@@H]1O[C@@H](O[C@H]2[C@H](O[C@H]3CC[C@@]4(C)[C@@H](CC[C@]5(C)[C@@H]4CC=C4[C@@H]6CC(C)(C)CC[C@]6(C(=O)O)CC[C@]45C)[C@]3(C)CO)OC[C@H](O[C@@H]3O[C@H](CO)[C@@H](O)[C@H](O)[C@H]3O)[C@@H]2O)[C@H](O)[C@H](O[C@@H]2OC[C@H](O)[C@H](O)[C@H]2O)[C@H]1O [SALZMANNIANOSIDE B]
Response: 100

====

For each record, write down the corresponding Activity.
# System: Biomphalaria alexandrina
# Test: Molluscicidal activity against Biomphalaria alexandrina assessed as number of dead snail at 20 ppm after 48 hrs
# Format: organism-based
# Condition Parameters: in vivo
Numbers only, in %.

See these solved cases before continuing.
>>> observed("C[C@@H]1O[C@@H](O[C@H]2[C@H](O[C@H]3CC[C@@]4(C)[C@@H](CC[C@]5(C)[C@@H]4CC=C4[C@@H]6CC(C)(C)CC[C@]6(C(=O)O)CC[C@]45C)[C@]3(C)CO)OC[C@H](O[C@@H]3O[C@H](CO)[C@@H](O)[C@H](O)[C@H]3O)[C@@H]2O)[C@H](O)[C@H](O[C@@H]2OC[C@H](O)[C@H](O)[C@H]2O)[C@H]1O [SALZMANNIANOSIDE B]")
70
>>> observed("C[C@@H]1O[C@@H](O[C@H]2[C@H](O[C@H]3CC[C@@]4(C)[C@@H](CC[C@]5(C)[C@@H]4CC=C4[C@@H]6CC(C)(C)CC[C@]6(C(=O)O)CC[C@]45C)[C@]3(C)CO)OC[C@H](O[C@@H]3O[C@H](CO)[C@@H](O)[C@H](O)[C@H]3O)[C@@H]2O)[C@H](O)[C@H](O)[C@H]1O [HEDERACOLCHISIDE A]")
100

The following molecules each have a reported value; give each one's Activity.
1. C[C@@H]1O[C@@H](O[C@H]2[C@H](O[C@H]3CC[C@]4(C)[C@H]5CC=C6[C@@H]7CC(C)(C)CC[C@]7(C(=O)O)CC[C@@]6(C)[C@]5(C)CC[C@H]4C3(C)C)OC[C@H](O[C@@H]3O[C@H](CO)[C@@H](O)[C@H](O)[C@H]3O)[C@@H]2O)[C@H](O)[C@H](O)[C@H]1O [HEDERACOLCHISIDE A1]
2. C[C@@H]1O[C@@H](O[C@H]2[C@H](O[C@H]3CC[C@]4(C)[C@H]5CC=C6[C@@H]7CC(C)(C)CC[C@]7(C(=O)O)CC[C@@]6(C)[C@]5(C)CC[C@H]4[C@]3(C)C=O)OC[C@H](O[C@@H]3O[C@H](CO)[C@@H](O)[C@H](O)[C@H]3O)[C@@H]2O)[C@H](O)[C@H](O)[C@H]1O [SALZMANNIANOSIDE A]

Response:
100
100
